Experiment: amyloid nucleation score (Sup35N fusion, yeast selection) (log enrichment); library NNK1; higher = more nucleation; inactive = no reads after selection;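 also: zero at mode of non-aggregating sequences after 7 days selection at 30°C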

{"columns": ["Substance", "amyloid nucleation score"],
 "data": [
  ["KIEFIGDVRFA", 0.92],
  ["MVRNKQKLLKGQ", 0.375],
  ["LPCHLPRLVPKGYPSFTLYK", -0.672],
  ["VNLRCRSTLEGSN", -0.077],
  ["YNKCLCAVLSRMFTGWHISA", 0.795],
  ["TYVLTP", -0.454],
  ["RLSLTINFGNKFRCITGQFD", 4.01],
  ["SSPVRGASKSSRGSTNVHAN", 0.29],
  ["QFVMINYSSSNVASPNLLRI", 0.94],
  ["VCAQFSRGRIFTAIVIGWTQ", 0.857],
  ["NYALGFRAAWIIRLLRWSVE", 0.254],
  ["MSCTVHLGLFMESTNHYCMC", "inactive"],
  ["VATIQRISGIKQESAGSRTF", -0.07],
  ["RFYIGIVIQRTYGRC", 2.79],
  ["VPVLLNARIRI", -1.1],
  ["YNDYACRYCFLVGTMD", 7.62],
  ["ARYYLLFAFDNNFCIGVVGS", 4.23],
  ["YSCCRVFMCARWLRVTCNMS", 0.189],
  ["RYFVYLSVFDYFINHLDIRW", -0.79],
  ["WVRNSLCRQIRRSANHQSGA", "inactive"],
  ["AIKCHL", -0.721],
  ["NSYTCNMFDLVFCAYTIASI", 4.95],
  ["LSMCYIFCDARYLYSQCFGV", 4.38],
  ["PTSLLLGINYCLFWSIYLRD", 1.81],
  ["YWCMLARSLDDEGLFWRTGG", -0.38],
  ["HLNNCLTRRNWTRYFSRVAP", 0.95],
  ["MGFVGPENAKDYCSRGV", 0.357],
  ["QFTRLCMLRNTLFTVVENQA", 0.383],
  ["AGRSNF", -0.062],
  ["MACRSPEGLEYMKN", 0.209],
  ["CMNSMC", 0.066],
  ["VSYRTSMSVVLRCGFYCSAY", 3.22],
  ["PVARTPHWVLAVRWHALIWG", 1.4],
  ["SFKGYVSWVGSPHRAVG", 0.425],
  ["LKAHPSVTSCPVRSLI", -0.281],
  ["FHNVFCFSYFT", 7.21],
  ["SRRSENYFSGANRIGHGGST", 0.54],
  ["FMHAFRNQRLNLAGLGFRVA", 0.573],
  ["DNGGSAVQEDQVLAWSTGEQ", 0.874],
  ["IMPDNDWKSCILIFSRSILF", 2.59],
  ["TRCIAVFIGD", 2.52],
  ["FFASCIRYDSRNCIGNLQLG", 0.149],
  ["NRNERVTHSSQFSIGFEERM", 1.14]
]}

* * *

Assay: amyloid nucleation score (Sup35N fusion, yeast selection) (log enrichment); library NNK1; higher = more nucleation; inactive = no reads after selection

{"columns": ["Biopolymer Sequence", "amyloid nucleation score"],
 "data": [
  ["NTYVYNDKGVRNIWKKLVYT", "inactive"],
  ["LPRNYTLLMPAVYIYVLVSW", "inactive"],
  ["MLDFTIQGLKSCWISVSLFF", "inactive"],
  ["LLVMVVMGCCA", 0.163],
  ["SWVNRPYWSPGDTTVWYGC", 1.06],
  ["VSCSDSMAFPSKSCF", 0.712],
  ["MRNVTFTGLMLDSDWNVH", -0.338],
  ["LYMICGVYCLDSGIRTMRTF", 5.51],
  ["LRISSFDMDNSVWFSRVYNY", 0.844],
  ["RLSYISPPSVYLALSRSRMD", 0.229],
  ["KAVFDNLLTCPILVIGSTPA", -0.956],
  ["TRFMMRVRIVSDCDTVNFAC", -0.379],
  ["YCQVYGSVWNFKRYYLATWS", -0.128]
]}

* * *

Experiment: amyloid nucleation score (Sup35N fusion, yeast selection) (log enrichment); library NNK1; higher = more nucleation; inactive = no reads after selection

{"columns": ["Biopolymer Sequence", "amyloid nucleation score"],
 "data": [
  ["RGILNRVTLILDLRVHSSSD", 0.504],
  ["LGVPRVISCSCHLSVRNSAK", 0.413],
  ["FELLMDIDC", 0.139],
  ["RPTGLDILS", 3.56],
  ["TVSDHPSFFCVYCADSSVGM", 7.44]
]}

* * *

Assay: amyloid nucleation score (Sup35N fusion, yeast selection) (log enrichment); library NNK1; higher = more nucleation; inactive = no reads after selection
Endpoint Name: amyloid nucleation score

{"columns": ["Substance", "Result"],
 "data": [
  ["RSFWYDHGIRVGLRLYNCSM", "inactive"],
  ["YLVSTSRWGYLVLTLMWKEG", "inactive"],
  ["TEGPSN", "inactive"],
  ["DFFRFC", "inactive"]
]}

* * *

Assay: amyloid nucleation score (Sup35N fusion, yeast selection) (log enrichment); library NNK1; higher = more nucleation; inactive = no reads after selection
substances and their reported amyloid nucleation score
Endpoint Name: amyloid nucleation score

{"columns": ["Substance", "Readout Number"],
 "data": [
  ["VVIESYC", 0.593],
  ["LLGYLAMCS", 1.01],
  ["NCKNVYCFKYASGIGERAFY", 0.091],
  ["TCKTHHRGTPGATVFPKDTA", 0.17],
  ["HHINWPGCVSRNSYKAIYDG", -0.262],
  ["LRTCFEQRENMIA", -0.229],
  ["PHGHVEYLIFFCNKPGSHGS", 1.49],
  ["WNCLCSGLTC", 6.81],
  ["TGPVLTPKSCYFGHINSSCF", -0.009],
  ["GFWVWSSSRRCLIVRFQVMG", -0.373],
  ["CCLVLSFLCNMEDSRNGG", 6.36],
  ["ICYTLTMVMAGVEAGGATLV", 0.294],
  ["YSTRPKVPFVRKVFIIGL", 0.174],
  ["ESKEPFLCIQDITVSSFLPF", -1.69],
  ["YGVNLPALLFKYAISGSLVG", 1.03],
  ["MVAIMQISMGSAVFLYAR", 4.24],
  ["RVSSHGLILHFDKDNSMIAV", 0.936],
  ["LLDKISNRPTQYGTTVPPVP", 0.573],
  ["NDTQLRISACYALRDNGEWV", 1.12],
  ["QLPAFGINMSRLSNSCSYGC", 0.095],
  ["GNWYLCTGF", 1.58]
]}

* * *

Assay: amyloid nucleation score (Sup35N fusion, yeast selection) (log enrichment); library NNK1; higher = more nucleation; inactive = no reads after selection

{"columns": ["Biopolymer Sequence", "amyloid nucleation score"],
 "data": [
  ["RRSWVFFVDWFIFVCLCVNG", "inactive"],
  ["PCQFMASSYFHK", "inactive"],
  ["GCRTLHGGAVDKLYTWCHLA", 0.504],
  ["SGRWLYVLVPICMPYVAELS", "inactive"],
  ["SYNQLDKCR", "inactive"]
]}

* * *

Assay: amyloid nucleation score (Sup35N fusion, yeast selection) (log enrichment); library NNK1; higher = more nucleation; inactive = no reads after selection
Endpoint Name: amyloid nucleation score

{"columns": ["Biopolymer Sequence", "Result"],
 "data": [
  ["MGRLRARRSLVLVA", "inactive"],
  ["GLLSRNLVLRGLNSGNWPFG", "inactive"],
  ["QFYKGRNSFNERSSSNVLRY", "inactive"]
]}
